Biological target: HLA-DRB1*04:04 (plate-bound, peptide-binding assays) (human)
Assay: competition peptide-binding assay on plates
Square brackets hold non-standard residues; d marks the D form. Ends that are not written are not given here. Cit = NC(=O)NCCC[C@H](N)C(=O)O
Answer each item with its documented pIC50.
One number for each entry, as −log10 of the molar value.

Some entries whose results are on file:
1) KAKFAGRNFRNPLAK [α-enolase peptide 420 (residues 420–434), native]    4.60
2) KAKFAG[Cit]NF[Cit]NPLAK [α-enolase peptide Cit420 (residues 420–434), citrullinated]    4.55
3) VIGMDVAASEFF[Cit]SG [α-enolase peptide Cit241 (residues 241–255), citrullinated]    6.70

Need pIC50 for each of these binders.
1. TSKGLFRAAVPSGAS [α-enolase peptide 26 (residues 26–40), native]
2. KRIAKAVNEKSCNCL [α-enolase peptide 326 (residues 326–340), native]
3. VIGMDVAASEFFRSG [α-enolase peptide 241 (residues 241–255), native]
4. TSKGLF[Cit]AAVPSGAS [α-enolase peptide Cit26 (residues 26–40), citrullinated]
5. K[Cit]IAKAVNEKSCNCL (cysteine pairing not given here) [α-enolase peptide Cit326 (residues 326–340), citrullinated]

1: 6.30; 2: 6.15; 3: 6.30; 4: 6.30; 5: 6.15
